Reference for the values: paper PMC9182007

assay explanation: HPLC on immobilized artificial membrane column (HPLCIAM)
Type: physicochemical
run parameters: Table S5, retention factor, IAM column, phosphate buffer pH 7.4/acetonitrile 80:20
experimental readout: k IAM
Answers are plain numbers.

These recorded examples may help you get a feel for the data.
[
  {
    "molecule": "CCCC(CCC)C(=O)O",
    "experimental readout": "k IAM",
    "result number": 0.08
  },
  {
    "molecule": "C[C@]12C=CC(=O)C=C1CC[C@@H]1[C@@H]2[C@@H](O)C[C@@]2(C)[C@H]1CC[C@]2(O)C(=O)CO",
    "experimental readout": "k IAM",
    "result number": 2.84
  },
  {
    "molecule": "Clc1ccc2c(c1)CCc1cccnc1C2=C1CCNCC1",
    "experimental readout": "k IAM",
    "result number": 50.45
  },
  {
    "molecule": "CC(C)NCC(O)COc1ccc(COCCOC(C)C)cc1 (centres unmarked)",
    "experimental readout": "k IAM",
    "result number": 6.74
  }
]

Here's the next entry for you.
Query :: Look up k IAM for this molecule: "CN(C)CCCN1c2ccccc2Sc2ccc(Cl)cc21"
Result :: 58.85

###

study target: bovine serum albumin (BSA) (Bos taurus)
Construct: purchased Sigma Aldrich
Sequence (P02769 25-607): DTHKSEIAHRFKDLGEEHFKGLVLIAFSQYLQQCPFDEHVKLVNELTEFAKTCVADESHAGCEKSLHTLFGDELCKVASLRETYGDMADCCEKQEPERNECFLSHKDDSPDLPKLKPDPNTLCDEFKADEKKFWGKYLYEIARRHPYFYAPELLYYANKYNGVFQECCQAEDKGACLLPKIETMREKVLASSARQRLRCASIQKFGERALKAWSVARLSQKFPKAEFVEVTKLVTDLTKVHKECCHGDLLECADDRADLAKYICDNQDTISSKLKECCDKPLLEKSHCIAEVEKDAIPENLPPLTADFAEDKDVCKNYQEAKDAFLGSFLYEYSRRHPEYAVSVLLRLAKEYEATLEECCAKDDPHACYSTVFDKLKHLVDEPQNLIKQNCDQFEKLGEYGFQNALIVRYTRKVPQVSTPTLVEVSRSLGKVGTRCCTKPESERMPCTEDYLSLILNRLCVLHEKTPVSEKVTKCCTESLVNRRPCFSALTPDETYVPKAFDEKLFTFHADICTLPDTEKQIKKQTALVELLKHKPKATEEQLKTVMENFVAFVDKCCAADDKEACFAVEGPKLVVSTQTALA
assay explanation: RP TLC on plates impregnated with bovine serum albumin
Format: binding
run parameters: Table S4, RP plate impregnated with 2 mg/mL BSA; pH 7.4 mobile phase
RP (Rf, BSA-impregnated RP plate) under 0.7 gets T, anything at or over 0.7 gets F.

Worked set:
[
  {
    "compound": "COc1cc(N)c(Cl)cc1C(=O)NC1CCN(CCCOc2ccc(F)cc2)CC1OC (stereo not shown) [cisapride]",
    "discrete label": "T"
  },
  {
    "compound": "Fc1ccc([C@@H]2CCNC[C@H]2COc2ccc3c(c2)OCO3)cc1",
    "discrete label": "T"
  },
  {
    "compound": "CN1CCN2c3ccccc3Cc3ccccc3C2C1 (stereo not shown)",
    "discrete label": "T"
  },
  {
    "compound": "CCN(Cc1ccncc1)C(=O)C(CO)c1ccccc1 (stereo not shown)",
    "discrete label": "F"
  },
  {
    "compound": "CN1C(=O)CC(=O)N(c2ccccc2)c2cc(Cl)ccc21",
    "discrete label": "F"
  },
  {
    "compound": "CCOC(=O)[C@H](CCc1ccccc1)N[C@@H](C)C(=O)N1Cc2ccccc2C[C@H]1C(=O)O",
    "discrete label": "T"
  }
]

Query :: Please state whether RP (Rf, BSA-impregnated RP plate) is below 0.7 for "CCCCCOC(=O)Nc1nc(=O)n([C@@H]2O[C@H](C)[C@@H](O)[C@H]2O)cc1F"
Result :: F

Query :: Please state whether RP (Rf, BSA-impregnated RP plate) is below 0.7 for "CCC[C@H](N[C@@H](C)C(=O)N1[C@H](C(=O)O)C[C@@H]2CCCC[C@@H]21)C(=O)OCC"
Result :: T

Query :: Please state whether RP (Rf, BSA-impregnated RP plate) is below 0.7 for CN(C)CCOC(c1ccccc1)c1ccccc1 [diphenhydramin]
Result :: T

###

For each of the molecules below, state its NP (Rf, BSA-impregnated NP plate).
study target: bovine serum albumin (BSA) (Bos taurus)
Construct: purchased Sigma Aldrich
assay explanation: NP TLC on plates impregnated with bovine serum albumin
Format: binding
run parameters: Table S3, NP plate impregnated with 2 mg/mL BSA; pH 7.4 mobile phase
Numbers only.

[
  {
    "molecule": "CN1CCN2c3ccccc3Cc3ccccc3C2C1 (stereo not shown) [mianserin]",
    "NP (Rf, BSA-impregnated NP plate)": 0.55
  },
  {
    "molecule": "CN1C(C(=O)Nc2ccccn2)=C(O)c2ccccc2S1(=O)=O [piroxicam]",
    "NP (Rf, BSA-impregnated NP plate)": 0.98
  },
  {
    "molecule": "Cc1ncc2n1-c1ccc(Cl)cc1C(c1ccccc1F)=NC2 [midazolam]",
    "NP (Rf, BSA-impregnated NP plate)": 0.83
  }
]

Query :: Look up NP (Rf, BSA-impregnated NP plate) for this molecule: CC[C@H]1OC(=O)[C@H](C)[C@@H](O[C@H]2C[C@@](C)(OC)[C@@H](O)[C@H](C)O2)[C@H](C)[C@@H](O[C@@H]2O[C@H](C)C[C@H](N(C)C)[C@H]2O)[C@](C)(O)C[C@@H](C)CN(C)[C@H](C)[C@@H](O)[C@]1(C)O [azithromycin]
Result :: 0.63

###

assay explanation: HPLC on immobilized artificial membrane column (HPLCIAM)
Assay type: physicochemical
run parameters: Table S9, external group
For each of the molecules below, state its kIAM.
One number for each entry.

For every listed record, write down its kIAM.
1. CCS(=O)(=O)CCn1c([N+](=O)[O-])cnc1C
2. C=C[C@H]1C[N@@]2CC[C@H]1C[C@H]2[C@H](O)c1ccnc2ccc(OC)cc12
3. CC1COc2c(N3CCN(C)CC3)c(F)cc3c(=O)c(C(=O)O)cn1c23 (centres unmarked)
4. Nc1cc(N2CCCCC2)nc(N)[n+]1[O-]
5. CN(C)CCCN1c2ccccc2CCc2ccc(Cl)cc21
6. CCOC(=O)C1=C(C)NC(C)=C(C(=O)OC)C1c1cccc([N+](=O)[O-])c1 (centres unmarked)
7. CCC1(c2ccccc2)C(=O)NCNC1=O
8. NS(=O)(=O)c1cc2c(cc1Cl)NCNS2(=O)=O [hydrochlorotiazide]

Result ::
1: 2.00; 2: 3.06; 3: 3.07; 4: 1.96; 5: 3.05; 6: 2.98; 7: 2.02; 8: 2.01

###

For each of the compounds below, state its chromatographic logD.
study target: human serum albumin (HSA) (Homo sapiens, UniProt P02768)
Sequence (P02768 25-609): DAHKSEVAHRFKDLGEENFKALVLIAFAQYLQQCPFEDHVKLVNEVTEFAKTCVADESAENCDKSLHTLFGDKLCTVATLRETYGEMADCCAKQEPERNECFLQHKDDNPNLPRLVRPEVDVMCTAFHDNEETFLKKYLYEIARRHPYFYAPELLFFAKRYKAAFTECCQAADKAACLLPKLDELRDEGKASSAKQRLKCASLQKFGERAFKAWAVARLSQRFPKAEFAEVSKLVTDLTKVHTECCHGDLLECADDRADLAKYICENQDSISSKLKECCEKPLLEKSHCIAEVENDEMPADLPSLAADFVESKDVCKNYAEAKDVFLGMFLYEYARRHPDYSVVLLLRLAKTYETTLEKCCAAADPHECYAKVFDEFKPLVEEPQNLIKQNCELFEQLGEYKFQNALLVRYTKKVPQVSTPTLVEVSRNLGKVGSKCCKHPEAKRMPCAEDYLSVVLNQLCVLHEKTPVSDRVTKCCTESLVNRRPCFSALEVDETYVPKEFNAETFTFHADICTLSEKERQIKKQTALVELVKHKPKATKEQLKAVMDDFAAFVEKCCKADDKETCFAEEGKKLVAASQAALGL
assay explanation: in vitro
run parameters: immobilized hsa column, pH 7.4
Numbers only.

For every listed record, write down its chromatographic logD.
1. CN(C)CCC=C1c2ccccc2CCc2ccccc21
2. NCC1(CC(=O)O)CCCCC1
3. CCN(CC)C(=O)Nc1ccc(OCC(O)CNC(C)(C)C)c(C(C)=O)c1 (stereo not drawn)
4. CCC(C)n1ncn(-c2ccc(N3CCN(c4ccc(OCC5COC(Cn6cncn6)(c6ccc(Cl)cc6Cl)O5)cc4)CC3)cc2)c1=O (stereo not drawn)

Result ::
[0.77, -0.84, 0.05, 0.98]

For every listed record, write down its chromatographic logD.
1. CN1CCN=C(c2ccccc2)c2cc(Cl)ccc21
2. COC(=O)[C@@H]1CC2=CC(=O)CC[C@]2(C)[C@@]23O[C@@H]2C[C@@]2(C)[C@@H](CC[C@@]24CCC(=O)O4)[C@H]13
3. O=C1NC(=O)C(c2ccccc2)(c2ccccc2)N1
4. CC(C)C[C@H](CN)CC(=O)O
5. Cc1ncc2n1-c1ccc(Cl)cc1C(c1ccccc1F)=NC2

Result ::
1: 1.25; 2: -0.68; 3: 0.21; 4: -0.87; 5: 0.51

For every listed record, write down its chromatographic logD.
1. CN1CCN(C2=Nc3cc(Cl)ccc3Nc3ccccc32)CC1
2. C[C@](N)(Cc1ccc(O)c(O)c1)C(=O)O
3. CN1CCC(=C2c3ccccc3C=Cc3ccccc32)CC1
4. NC(N)=Nc1nc(CSCCC(N)=NS(N)(=O)=O)cs1
5. Nc1ccc(O)c(C(=O)O)c1

Result ::
[0.84, -0.44, 0.99, 0, -0.73]

For every listed record, write down its chromatographic logD.
1. CC[C@H]1OC(=O)[C@H](C)[C@@H](O[C@H]2C[C@@](C)(OC)[C@@H](O)[C@H](C)O2)[C@H](C)[C@@H](O[C@@H]2O[C@H](C)C[C@H](N(C)C)[C@H]2O)[C@](C)(O)C[C@@H](C)CN(C)[C@H](C)[C@@H](O)[C@]1(C)O
2. CN/C(=N/CCSCc1nc[nH]c1C)NC#N

Result ::
1. -0.64
2. -0.17

###

For each of the compounds below, state its k HSA.
study target: human serum albumin (HSA) (Homo sapiens)
run parameters: Table S5, retention factor, HSA column, pH 7.4, 25 degrees Celsius

[
  {
    "compound": "CN(C)CCCN1c2ccccc2Sc2ccccc21",
    "k HSA": 8.9
  },
  {
    "compound": "CN/C(=N/CCSCc1nc[nH]c1C)NC#N",
    "k HSA": 0.67
  },
  {
    "compound": "CCC[C@H](N[C@@H](C)C(=O)N1[C@H](C(=O)O)C[C@@H]2CCCC[C@@H]21)C(=O)OCC",
    "k HSA": 0.49
  },
  {
    "compound": "CC(=O)S[C@@H]1CC2=CC(=O)CC[C@]2(C)[C@H]2CC[C@@]3(C)[C@@H](CC[C@@]34CCC(=O)O4)[C@H]12",
    "k HSA": 0.82
  },
  {
    "compound": "CCOC(=O)[C@H](CCc1ccccc1)N[C@@H](C)C(=O)N1CCC[C@H]1C(=O)O",
    "k HSA": 0.34
  }
]

For every listed record, write down its k HSA.
1. COC(=O)[C@@H]1CC2=CC(=O)CC[C@]2(C)[C@@]23O[C@@H]2C[C@@]2(C)[C@@H](CC[C@@]24CCC(=O)O4)[C@H]13
2. CCOC(=O)[C@H](CCc1ccccc1)N[C@@H](C)C(=O)N1Cc2ccccc2C[C@H]1C(=O)O
3. Cc1ccc(-c2cc(C(F)(F)F)nn2-c2ccc(S(N)(=O)=O)cc2)cc1
4. CN(C)CCCN1c2ccccc2Sc2ccc(Cl)cc21

Result ::
1: 0.21; 2: 3.1; 3: 13.42; 4: 13.33

For every listed record, write down its k HSA.
1. COc1ccnc(C[S+]([O-])c2nc3ccc(OC(F)F)cc3[nH]2)c1OC (centres unmarked)
2. Cc1ccc(S(=O)(=O)NC(=O)NN2CC3CCCC3C2)cc1 (centres unmarked) [gliclazide]
3. C[C@](N)(Cc1ccc(O)c(O)c1)C(=O)O
4. CN1CCC(=C2c3ccccc3CC(=O)c3sccc32)CC1
5. CC(C)c1nc(N(C)S(C)(=O)=O)nc(-c2ccc(F)cc2)c1/C=C/[C@@H](O)C[C@@H](O)CC(=O)O
6. CN(C)CCc1c[nH]c2ccc(Cn3cncn3)cc12

Result ::
[2.09, 9.69, 0.36, 5.83, 1.96, 2.06]

For every listed record, write down its k HSA.
1. CC(=O)[C@H]1CC[C@H]2[C@@H]3CCC4=CC(=O)CC[C@]4(C)[C@H]3CC[C@]12C
2. CC(C)NCC(O)COc1cccc2[nH]ccc12 (centres unmarked)

Result ::
1: 5.7; 2: 1.65
